- target: T1, human programmed cell death protein 1 (hPD-1) C93S (aa 24-167) (Homo sapiens, UniProt Q15116, C93S)
- T1 construct: made as a fusion with a TEV site and human Fc; the Fc was cut off with TEV protease; source: Expi293F, purified (Protein A, TEV cleavage of Fc, SEC; monomer fractions); not shown: Fc (human), C-terminal, cleaved
- T1 sequence (Q15116 24-167 C93S): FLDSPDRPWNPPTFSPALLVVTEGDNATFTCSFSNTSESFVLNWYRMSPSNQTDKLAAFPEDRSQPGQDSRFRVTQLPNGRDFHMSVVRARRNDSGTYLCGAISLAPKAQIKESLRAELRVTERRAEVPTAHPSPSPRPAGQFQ
- protocol: SPR; Carterra LSA; Fab from the ammonium sulfate precipitate of the culture supernatant immobilised on a NiHC200M chip; hPD-1 (1-1024 nM) or mPD-1-Fc (4-1024 nM) as analyte, fourfold dilution series, no regeneration; HBS-EP pH 7.4, 25 °C; medians over the spots of a construct, KD = koff/kon
- condition label: one partner purified
quantity measured: kon (M⁻¹ s⁻¹)

toripalimab Fab L.T102A (Fab, V domains shown, as the heavy chain of Sm3; light chain of Sm3 with this change; numbers count from the chain's first residue; source: Brevibacillus, culture supernatant (ammonium sulfate precipitate); not shown: 6xHis, C-terminal, kept; 6xHN, C-terminal, kept) VH: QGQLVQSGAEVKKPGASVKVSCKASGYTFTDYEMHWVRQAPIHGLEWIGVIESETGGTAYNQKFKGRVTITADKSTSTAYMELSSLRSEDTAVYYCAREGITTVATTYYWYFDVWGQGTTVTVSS VL: DVVMTQSPLSLPVTLGQPASISCRSSQSIVHSNGNTYLEWYLQKPGQSPQLLIYKVSNRFSGVPDRFSGSGSGTDFTLKISRVEAEDVGVYYCFQGSHVPLAFGQGTKLEIK :: 12400
toripalimab Fab L.T102Y (Fab, V domains shown, as the heavy chain of Sm3; light chain of Sm3 with this change; numbers count from the chain's first residue; source: Brevibacillus, culture supernatant (ammonium sulfate precipitate); not shown: 6xHis, C-terminal, kept; 6xHN, C-terminal, kept) VH: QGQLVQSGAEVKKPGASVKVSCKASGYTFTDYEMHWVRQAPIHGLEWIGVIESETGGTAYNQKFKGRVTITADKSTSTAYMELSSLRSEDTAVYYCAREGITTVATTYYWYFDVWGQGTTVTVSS VL: DVVMTQSPLSLPVTLGQPASISCRSSQSIVHSNGNTYLEWYLQKPGQSPQLLIYKVSNRFSGVPDRFSGSGSGTDFTLKISRVEAEDVGVYYCFQGSHVPLYFGQGTKLEIK :: 22700
toripalimab Fab L.V99S (Fab, V domains shown, as the heavy chain of Sm3; light chain of Sm3 with this change; numbers count from the chain's first residue; source: Brevibacillus, culture supernatant (ammonium sulfate precipitate); not shown: 6xHis, C-terminal, kept; 6xHN, C-terminal, kept) VH: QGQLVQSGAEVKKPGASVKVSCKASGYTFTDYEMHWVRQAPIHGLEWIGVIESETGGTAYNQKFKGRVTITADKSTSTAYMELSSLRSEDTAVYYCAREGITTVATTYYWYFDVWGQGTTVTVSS VL: DVVMTQSPLSLPVTLGQPASISCRSSQSIVHSNGNTYLEWYLQKPGQSPQLLIYKVSNRFSGVPDRFSGSGSGTDFTLKISRVEAEDVGVYYCFQGSHSPLTFGQGTKLEIK :: 8660
toripalimab Fab L.T36A (Fab, V domains shown, as the heavy chain of Sm3; light chain of Sm3 with this change; numbers count from the chain's first residue; source: Brevibacillus, culture supernatant (ammonium sulfate precipitate); not shown: 6xHis, C-terminal, kept; 6xHN, C-terminal, kept) VH: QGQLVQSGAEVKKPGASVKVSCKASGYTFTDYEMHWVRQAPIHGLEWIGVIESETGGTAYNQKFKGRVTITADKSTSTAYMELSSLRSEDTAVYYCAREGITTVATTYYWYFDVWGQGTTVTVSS VL: DVVMTQSPLSLPVTLGQPASISCRSSQSIVHSNGNAYLEWYLQKPGQSPQLLIYKVSNRFSGVPDRFSGSGSGTDFTLKISRVEAEDVGVYYCFQGSHVPLTFGQGTKLEIK :: 6610

Source: paper PMC10663500
